# Tested on: neonatal rat ventricular cardiomyocytes (NVCM)
# EXPERIMENT_SUMMARY: Inherent toxicity (LDH release) in NVCM
# Assay type: cell-based
# Set-up: key: % of total LDH activity
# DETAILS: compound alone 0.01 µM; NVCM; Suppl.Fig.4
Listed compounds paired with reported LDH release (inherent toxicity), mean of independent replicates
The answer should be written as a number, with no unit following it.

Example results:
{"columns": ["SMILES_STRING", "RESULT"],
 "data": [
  ["CCCOc1ccc2c(CCC)cc(=O)oc2c1C(=O)N1CCCc2ccccc21", 13.5244],
  ["CCCc1cc(=O)oc2c(C(=O)N3CCCc4ccccc43)c(OC)cc(OC)c12", 12.6739],
  ["CCCCc1cc(=O)oc2c(C(=O)N3CCCc4ccccc43)c(OCCC)ccc12", 17.8445]
]}

// lookup LDH release (inherent toxicity), mean of independent replicates | system=neonatal rat ventricular cardiomyocytes (NVCM) | key= `CCCOc1ccc2c(CC)cc(=O)oc2c1C(=O)N1CCCc2ccccc21`
14.7625

// lookup LDH release (inherent toxicity), mean of independent replicates | system=neonatal rat ventricular cardiomyocytes (NVCM) | key= `CCCCc1cc(=O)oc2c(C(=O)N3CCCc4ccccc43)c(OC)ccc12`
14.5175

// lookup LDH release (inherent toxicity), mean of independent replicates | system=neonatal rat ventricular cardiomyocytes (NVCM) | key= `CCCCc1cc(=O)oc2c(C(=O)N3CCCc4ccccc43)c(OCCO)ccc12`
16.4804

// lookup LDH release (inherent toxicity), mean of independent replicates | system=neonatal rat ventricular cardiomyocytes (NVCM) | key= `CCCc1cc(=O)oc2c(C(=O)N3CCCc4ccccc43)c(OCCO)ccc12`
14.5952

----------
# TESTED_ON: recombinant human TOP2A (Homo sapiens, UniProt P11388)
# Construct: Using recombinant full-length human TOP2A and TOP2B enzymes; YFP (N, cleaved yes); made in house; host or cells: HEK293F
# Sequence (P11388 whole entry): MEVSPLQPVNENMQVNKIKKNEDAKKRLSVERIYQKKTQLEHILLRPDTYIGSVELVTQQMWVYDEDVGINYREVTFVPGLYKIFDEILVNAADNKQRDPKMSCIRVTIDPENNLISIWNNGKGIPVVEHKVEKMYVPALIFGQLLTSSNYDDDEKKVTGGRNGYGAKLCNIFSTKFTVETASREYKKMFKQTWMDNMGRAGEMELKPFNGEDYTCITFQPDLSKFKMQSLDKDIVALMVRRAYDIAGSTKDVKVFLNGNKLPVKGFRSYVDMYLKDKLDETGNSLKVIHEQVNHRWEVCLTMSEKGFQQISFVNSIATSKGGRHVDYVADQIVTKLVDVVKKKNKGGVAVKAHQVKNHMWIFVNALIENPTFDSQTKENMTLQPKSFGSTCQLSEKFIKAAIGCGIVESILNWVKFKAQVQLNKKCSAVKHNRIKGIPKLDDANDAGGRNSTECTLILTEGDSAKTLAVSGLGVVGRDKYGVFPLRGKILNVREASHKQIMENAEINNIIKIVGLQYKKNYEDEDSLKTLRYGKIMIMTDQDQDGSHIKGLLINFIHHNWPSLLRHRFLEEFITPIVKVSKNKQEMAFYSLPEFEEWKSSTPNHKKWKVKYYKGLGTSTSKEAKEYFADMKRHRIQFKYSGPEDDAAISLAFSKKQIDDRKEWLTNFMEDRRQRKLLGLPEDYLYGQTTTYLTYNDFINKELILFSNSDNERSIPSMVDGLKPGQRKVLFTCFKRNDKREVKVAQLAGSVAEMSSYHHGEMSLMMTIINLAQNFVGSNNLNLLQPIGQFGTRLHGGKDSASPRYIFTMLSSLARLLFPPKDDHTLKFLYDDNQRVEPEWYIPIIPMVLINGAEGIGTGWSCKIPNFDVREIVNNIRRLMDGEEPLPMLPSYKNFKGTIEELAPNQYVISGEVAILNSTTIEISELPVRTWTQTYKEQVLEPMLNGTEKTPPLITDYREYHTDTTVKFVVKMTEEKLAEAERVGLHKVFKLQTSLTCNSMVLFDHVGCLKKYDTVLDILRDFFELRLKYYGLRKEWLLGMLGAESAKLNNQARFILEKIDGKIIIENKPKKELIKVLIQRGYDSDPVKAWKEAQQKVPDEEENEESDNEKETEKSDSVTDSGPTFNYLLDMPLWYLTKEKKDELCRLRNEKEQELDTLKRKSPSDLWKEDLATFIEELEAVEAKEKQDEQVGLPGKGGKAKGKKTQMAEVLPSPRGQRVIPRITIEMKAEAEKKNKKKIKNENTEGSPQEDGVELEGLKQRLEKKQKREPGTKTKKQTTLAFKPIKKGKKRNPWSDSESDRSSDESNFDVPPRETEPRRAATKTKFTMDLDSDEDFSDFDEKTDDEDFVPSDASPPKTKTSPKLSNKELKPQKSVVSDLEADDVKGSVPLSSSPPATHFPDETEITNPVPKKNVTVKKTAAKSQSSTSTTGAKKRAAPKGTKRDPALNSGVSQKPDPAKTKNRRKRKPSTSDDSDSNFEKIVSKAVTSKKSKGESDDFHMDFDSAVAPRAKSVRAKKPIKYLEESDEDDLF
# EXPERIMENT_SUMMARY: In vitro ATPase activity of TOP2A (coupled assay)
# Type: biochemical
# DETAILS: n=3
REPORTED_METRIC: pIC50
As a rule, pIC50 stands for the negative log10 of the concentration, concentration in M.

Example results:
{"columns": ["SMILES_STRING", "TESTED_ON", "pIC50"],
 "data": [
  ["C[C@@H](CN1CC(=O)NC(=O)C1)N1CC(=O)NC(=O)C1", "recombinant human TOP2A (Homo sapiens, UniProt P11388)", 5.64],
  ["CCCc1cc(=O)oc2c(C(=O)N3CCCc4ccccc43)c(OCCO)ccc12", "recombinant human TOP2A (Homo sapiens, UniProt P11388)", 5.81],
  ["CCCc1cc(=O)oc2c(C(=O)N3CCCc4ccccc43)c(OC)ccc12", "recombinant human TOP2A (Homo sapiens, UniProt P11388)", 5.90],
  ["CCCc1cc(=O)oc2c(C(=O)N3CCCc4ccccc43)c(O)ccc12", "recombinant human TOP2A (Homo sapiens, UniProt P11388)", 6.16],
  ["CCCc1cc(=O)oc2c(C(=O)N3CCCc4ccccc43)c(OC)cc(OC)c12", "recombinant human TOP2A (Homo sapiens, UniProt P11388)", 5.90],
  ["CCc1cc(=O)oc2c(C(=O)N3CCCc4ccccc43)c(OCCO)ccc12", "recombinant human TOP2A (Homo sapiens, UniProt P11388)", 5.85]
]}

Param item = `CCCc1cc(=O)oc2c(C(=O)N3CCCc4ccccc43)c(OCCN3CCN(C)CC3)ccc12` ; retrieve measured pIC50.
5.39

Param item = `CCCOc1ccc2c(CCC)cc(=O)oc2c1C(=O)N1CCCc2ccccc21` ; retrieve measured pIC50.
5.73

----------
# System: neonatal rat ventricular cardiomyocytes (NVCM)
# EXPERIMENT_SUMMARY: Protection against DAU-induced cytotoxicity (LDH release) in NVCM
# Format: cell-based
# Design: key: % of total LDH activity
# DETAILS: compound 1 µM + DAU 1.2 µM
# Method: The protective effects of the BNS-22 and newly prepared compounds were evaluated using primary cultures of neonatal rat cardiomyocytes isolated in house as previously described. […] The total LDH activity of each sample for normalization was measured after 1 h of incubation at 37 °C in lysis buffer (0.1 M potassium phosphate, 1% Triton X-100, 1 mM dithiothreitol (DTT), 2 mM EDTA, pH 7.8, 15 min in RT). […] The rate of NAD^+ reduction was monitored spectrophotometrically at 340 nm for 2 min. […]
REPORTED_METRIC: Suppl.Fig.3 DAU-induced cytotoxicity (LDH release) in NVCM, mean of independent replicates
The answer should be written as a number, with no unit following it.

Example results:
{"columns": ["SMILES_STRING", "RESULT"],
 "data": [
  ["CCCCc1cc(=O)oc2c(C(=O)N3CCCc4ccccc43)c(OCCO)ccc12", 35.4099],
  ["CCCc1cc(=O)oc2c(C(=O)N3CCCc4ccccc43)c(OC)cc(OC)c12", 28.1702],
  ["Cc1cc(=O)oc2c(C(=O)N3CCCc4ccccc43)c(OCCO)ccc12", 47.2456],
  ["COc1ccc2c(C)cc(=O)oc2c1C(=O)N1CCCc2ccccc21", 38.7802]
]}

Param item = `CCc1cc(=O)oc2c(C(=O)N3CCCc4ccccc43)c(OC)ccc12` ; retrieve measured Suppl.Fig.3 DAU-induced cytotoxicity (LDH release) in NVCM, mean of independent replicates.
33.4469

Param item = `CCCc1cc(=O)oc2c(C(=O)N3CCCc4ccccc43)c(OCCO)ccc12` ; retrieve measured Suppl.Fig.3 DAU-induced cytotoxicity (LDH release) in NVCM, mean of independent replicates.
32.4872

Param item = `CCCc1cc(=O)oc2c(C(=O)N3CCCc4ccccc43)c(OC)ccc12` ; retrieve measured Suppl.Fig.3 DAU-induced cytotoxicity (LDH release) in NVCM, mean of independent replicates.
29.3632

Param item = `CCCCc1cc(=O)oc2c(C(=O)N3CCCc4ccccc43)c(OC)cc(OC)c12` ; retrieve measured Suppl.Fig.3 DAU-induced cytotoxicity (LDH release) in NVCM, mean of independent replicates.
30.0603

Param item = `CCCCc1cc(=O)oc2c(C(=O)N3CCCc4ccccc43)c(OCCC)ccc12` ; retrieve measured Suppl.Fig.3 DAU-induced cytotoxicity (LDH release) in NVCM, mean of independent replicates.
25.022

Param item = `CCc1cc(=O)oc2c(C(=O)N3CCCc4ccccc43)c(OCCO)ccc12` ; retrieve measured Suppl.Fig.3 DAU-induced cytotoxicity (LDH release) in NVCM, mean of independent replicates.
49.2444

Param item = `CCCCc1cc(=O)oc2c(C(=O)N3CCCc4ccccc43)c(OC)ccc12` ; retrieve measured Suppl.Fig.3 DAU-induced cytotoxicity (LDH release) in NVCM, mean of independent replicates.
35.9225

Param item = `CCCOc1ccc2c(C)cc(=O)oc2c1C(=O)N1CCCc2ccccc21` ; retrieve measured Suppl.Fig.3 DAU-induced cytotoxicity (LDH release) in NVCM, mean of independent replicates.
42.086

Param item = `CCCOc1ccc2c(CCC)cc(=O)oc2c1C(=O)N1CCCc2ccccc21` ; retrieve measured Suppl.Fig.3 DAU-induced cytotoxicity (LDH release) in NVCM, mean of independent replicates.
27.8991

Param item = `CCCOc1ccc2c(CC)cc(=O)oc2c1C(=O)N1CCCc2ccccc21` ; retrieve measured Suppl.Fig.3 DAU-induced cytotoxicity (LDH release) in NVCM, mean of independent replicates.
30.3899

Param item = `CCCc1cc(=O)oc2c(C(=O)N3CCCc4ccccc43)c(O)ccc12` ; retrieve measured Suppl.Fig.3 DAU-induced cytotoxicity (LDH release) in NVCM, mean of independent replicates.
33.3224

----------
# System: neonatal rat ventricular cardiomyocytes (NVCM)
# EXPERIMENT_SUMMARY: Inherent toxicity (LDH release) in NVCM
# Type: cell-based
# Set-up: key: % of total LDH activity
# DETAILS: compound alone 100 µM; NVCM; Suppl.Fig.4
REPORTED_METRIC: LDH release (inherent toxicity), mean of independent replicates

{"columns": ["SMILES_STRING", "TESTED_ON", "RESULT"],
 "data": [
  ["CCCc1cc(=O)oc2c(C(=O)N3CCCc4ccccc43)c(O)ccc12", "neonatal rat ventricular cardiomyocytes (NVCM)", 29.603]
]}

Param item = `CCc1cc(=O)oc2c(C(=O)N3CCCc4ccccc43)c(O)ccc12` ; retrieve measured LDH release (inherent toxicity), mean of independent replicates.
18.5764

Param item = `CCCCc1cc(=O)oc2c(C(=O)N3CCCc4ccccc43)c(OCCO)ccc12` ; retrieve measured LDH release (inherent toxicity), mean of independent replicates.
27.0966

Param item = `Cc1cc(=O)oc2c(C(=O)N3CCCc4ccccc43)c(O)ccc12` ; retrieve measured LDH release (inherent toxicity), mean of independent replicates.
17.1189

Param item = `CCCOc1ccc2c(CC)cc(=O)oc2c1C(=O)N1CCCc2ccccc21` ; retrieve measured LDH release (inherent toxicity), mean of independent replicates.
17.3487

Param item = `Cc1cc(=O)oc2c(C(=O)N3CCCc4ccccc43)c(OCCO)ccc12` ; retrieve measured LDH release (inherent toxicity), mean of independent replicates.
15.685

Param item = `CCCc1cc(=O)oc2c(C(=O)N3CCCc4ccccc43)c(OCCO)ccc12` ; retrieve measured LDH release (inherent toxicity), mean of independent replicates.
21.5856

Param item = `CCCCc1cc(=O)oc2c(C(=O)N3CCCc4ccccc43)c(OCCC)ccc12` ; retrieve measured LDH release (inherent toxicity), mean of independent replicates.
70.9323

Param item = `CCCOc1ccc2c(CCC)cc(=O)oc2c1C(=O)N1CCCc2ccccc21` ; retrieve measured LDH release (inherent toxicity), mean of independent replicates.
48.1102

Param item = `CCCCc1cc(=O)oc2c(C(=O)N3CCCc4ccccc43)c(OC)cc(OC)c12` ; retrieve measured LDH release (inherent toxicity), mean of independent replicates.
76.157
